# System Under Test: T1, MICA.008.a3.R202-S297.R202N mIgG2a.Glyco11 (human; mouse, UniProt Q29983 203-297, engineered N-linked glycosylation site R202N)
# T1 construct: not shown: murine IgG2a Fc
# T1 chain: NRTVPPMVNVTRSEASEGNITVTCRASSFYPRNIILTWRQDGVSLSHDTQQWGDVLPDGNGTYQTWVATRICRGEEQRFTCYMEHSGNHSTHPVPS
# Protocol Summary: ELISA, coated variant;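 note: ELISA with plates coated at 2 ug/ml with MICA*008 alpha 3 glycosylation variants as murine IgG2a Fc fusions, antibody binding detected by HRP anti-human IgG Fc and TMB absorbance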

# Binder, binding result
rows = [
    ("32D2 (antibody, V domains shown, Mouse hybridoma antibody; constant regions differ by assay) VH: DVHLVESGGGLVQPGGSRKLSCAASGFTFNTFGMNWVRQAPEKGLEWVAYINSGSNTIYYADTVKGRFTISRDNPKNTLFLQMTSLRSEDTAMYYCTRWEPVTGGFSYWGQGTLVTVSA VL: QIVLTQSPAFKSSSLGERVTMTCTASSSISSSYLHWYQQKPGSSPKLWIYTTSNLASGVPARFSGSGSGTSYSLTISTMEAEDAATYYCHQHHRSPFTFGSGTKVEIK", "binds"),
    ("2E5.2.3 (antibody, V domains shown, Mouse hybridoma antibody; constant regions differ by assay) VH: QGQMQQSGAELVKPGASVKLSCKTSGFTFSDNYISWLKQKPGQSLEWIAWIYAGTGGTSYNQKFTAKAQLTVDTSSSTAYMQFSSLTTEDSAIYYCARHDYYGTSGAWFAYWGQGTLVTVSA VL: DVLMTQTPLSLPVSLGDQASLSCRSSQNIVHINGNTYLEWYLQKPGQSPKLLIYKVSNRFSGVPDRFSGSGSGTDFTLKISRVEAEDLGVYYCFQGSHVPWTFGGGTKVEIK", "binds"),
    ("18G3 (antibody, V domains shown, Mouse variable domains; constant regions differ by assay) VH: VQLQESGPGLVKPSQSLSLTCNVTGYSITGDYAWNWIRQFPGNKLEWIGYIGYTGSTTYNPSLKSRVSITRDTSKNQFFLQLNSVTPEDTATYYCARWRNWAMDYWGLGTSVTVSS VL: DIQMTQTPSSLSASLGDRVTISCRANQDISHYLNWYQQKPDGAVKLLIYYTSRIHSGVPSRFSGSGSGTDYSLTIANLEQEDVATYFCQQGNTPPTTFGGGTKVEIK", "binds"),
]
